Test: Single dose clinical study: plasma Compound A pharmacokinetics
Assay type: in vivo, human
Conditions: human, plasma, po, 25 mg, plasma, Japanese Subjects (Part D), single oral 25 mg; read-out: t1/2 Mean (SD) (converted)
METRIC NAME: half-life (h)
Answer with a number only, understood to be in h.

Given "COc1ncc(C)c(-c2ccc3c(c2)[nH]c(=O)c2cnn([C@H]4CCOC4)c23)c1C" , state its recorded half-life.
21.5

---

Test: Multiple ascending dose study: plasma pharmacokinetics
Type: in vivo
Settings: human, po, 10 mg, Day 1, 10 mg QD oral, read-out: Cmax GM (% CV)
Protocol: Four sequential cohorts of healthy participants (≥50 years and ≤85 years old) were treated with multiple ascending doses of Compound A up to the maximum tolerated dose (MTD). A total of 6 participants per cohort were randomized to Compound A. Proposed doses of Compound A were: Participants received Compound A capsules, orally once daily (QD) on Days 1 to 14 after an overnight fast of at least 10 hours. Compound A was administered orally with 240 milliliter (mL) (8 fluid ounces) of water. […]
METRIC NAME: Cmax
Please make sure the unit comes right after the number.

Given "COc1ncc(C)c(-c2ccc3c(c2)[nH]c(=O)c2cnn([C@H]4CCOC4)c23)c1C" , state its recorded Cmax.
65.5 ng/mL
